Catalogue of binders with associated EC50
molecular target: T1, Apolipoprotein E4 (human, UniProt P02649 19-317); test: pH affinity ELISA, coated hApoE4, pH 6.0
T1 construct: also called ApoE4; hApoE4
T1 sequence (P02649 19-317 C130R limits assumed): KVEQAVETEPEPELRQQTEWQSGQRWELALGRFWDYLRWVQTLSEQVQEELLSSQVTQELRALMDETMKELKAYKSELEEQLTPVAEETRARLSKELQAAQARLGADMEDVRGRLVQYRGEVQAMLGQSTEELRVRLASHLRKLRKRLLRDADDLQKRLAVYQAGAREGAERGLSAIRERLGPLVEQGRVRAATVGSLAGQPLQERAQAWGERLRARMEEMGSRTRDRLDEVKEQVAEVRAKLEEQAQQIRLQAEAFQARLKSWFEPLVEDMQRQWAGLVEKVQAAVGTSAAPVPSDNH
Express the result in µg/mL but write the number alone.

Record excerpt, results attached:
BAP191.01-CPE-LC-P095D (antibody, V domains shown) VH: QIQLVQSGPELKKPGETVKISCKASGYTFTTAGMQWVQKMPGKGFKWIGWINTHSGEPKYAEDFKGRFAFSLETSASTAYLQISNLKNEDTATYFCARMGGYAMDYWGQGTSVTVSS VL: DIKLTQSPSSMYASLGERVTITCKASEDINSYLSWFQQKPGKSPKTLIYRANRLVDGVPSRFSGSGSGQDYSLTISSLEYEDMGIYYCLQYDEFDLTFGAGTKLELT: 0.0893
BAP191.01-CPE-HC-M099E (antibody, V domains shown) VH: QIQLVQSGPELKKPGETVKISCKASGYTFTTAGMQWVQKMPGKGFKWIGWINTHSGEPKYAEDFKGRFAFSLETSASTAYLQISNLKNEDTATYFCAREGGYAMDYWGQGTSVTVSS VL: DIKLTQSPSSMYASLGERVTITCKASEDINSYLSWFQQKPGKSPKTLIYRANRLVDGVPSRFSGSGSGQDYSLTISSLEYEDMGIYYCLQYDEFPLTFGAGTKLELT: 2.93

Attention now turns to another entry.
Any idea what EC50 was measured for BAP191.01-CPE-HC-R098E (antibody, V domains shown) VH: QIQLVQSGPELKKPGETVKISCKASGYTFTTAGMQWVQKMPGKGFKWIGWINTHSGEPKYAEDFKGRFAFSLETSASTAYLQISNLKNEDTATYFCAEMGGYAMDYWGQGTSVTVSS VL: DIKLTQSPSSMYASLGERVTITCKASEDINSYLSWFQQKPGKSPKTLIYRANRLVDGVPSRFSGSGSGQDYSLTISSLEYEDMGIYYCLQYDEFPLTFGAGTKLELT ?
4.36
